Reference source for all entries: patent US12528818B2

- Test system: pERK in NCI-H358 cells
- Protocol: Cell-based pERK HTRF assay (pERK inhibition in H358 cells)
- Condition label: pERK inhibition IC50, NCI-H358 cells, 30 min incubation; read-out: PERK in H358 cell
pIC50: −log10 of the molar value.
Quantity name: pIC50

Example cases with answers are listed next.
>  <Compound>
C=CC(=O)N1CCC[C@@H](N(C)c2nc(OC[C@@]34CCCN3C[C@H](F)C4)nc3c(F)c(-c4ccc(F)c5sc(N)nc45)c(C(F)(F)F)cc23)C1 [Compound 245]

>  <Target system>
pERK in NCI-H358 cells

>  <pIC50>
< 6.00

$$$$
>  <Compound>
C=CC(=O)N1CC[C@H](N(C)c2nc(OC[C@@]34CCCN3C[C@H](F)C4)nc3c(F)c(-c4ccc(F)c5sc(N)c(C#N)c45)c(C(F)(F)F)cc23)[C@@H]1C (single isomer, unassigned) [Compound 473]

>  <Target system>
pERK in NCI-H358 cells

>  <pIC50>
> 7.00

$$$$

Here's the next entry for you.
Query string: Please report the recorded pIC50 for C=CC(=O)N1CC[C@@H](N(C)c2nc(OC[C@@H]3C[C@@H](F)CN3C)nc3c(F)c(-c4ccc(F)c5sc(N)nc45)c(C(F)(F)F)cc23)C1 (atropisomer, axis not shown) [Compound 232] .
Result string: 6.00 to 7.00
